Target: T1, ACVR2B-Fc fusion protein (human, UniProt Q13705 19-137)
T1 construct: also called water-soluble ACVR2B
T1 sequence: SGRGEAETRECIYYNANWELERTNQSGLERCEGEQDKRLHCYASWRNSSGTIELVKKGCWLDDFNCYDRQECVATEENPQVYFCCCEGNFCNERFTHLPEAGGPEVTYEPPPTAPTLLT
Assay: phage ELISA; OD on ACVR2B divided by OD on a-myc
endpoint label: Ratio
Answers are plain numbers.

>  <binder>
ACVR2B D11 (monoclonal scFv-phage) (scFv, V domains shown) VH: MQLVQSGGGLVQPGRSLGLSCTASGFTFGDYAMSWVRQAPGKGLEWVGFIRSKAYGGTTEYAASVKGRLTISRDDSKSIAYLQMNSLRAEDTAVYYCARGHYGMDVWGQGTTVTVSS VL: DIQMTQSPSSLSASVGDRVTITCRASQNISNFLNWYQQKPGKAPKLLIYSASRLQRGVPSRFSGSGSGTDFTLTISSLQPEDFATYYCQQSYSTPYTFGQGTKLEIK

>  <Ratio>
3.66

$$$$
>  <binder>
ACVR2B B11 (monoclonal scFv-phage) (scFv, V domains shown) VH: VQLVESGGGLVQPGRSLRLSCAASGFTFDNHAMHWVRRAPGKGLEWVSGISWNGGTTAYADSVKGRFSIFRDNAEKSLYLQMNSLRAEDTAVYYCARGSSSGRYYFDYWGQGTLVTVSS VL: DIQMTQSPSSVSASVGDRVTITCRASQGISTYLNWYQHQSGKAPKLLIYGAFRLQSGVPSRFSGSGSGTDFTLTISNLQPEDFATYYCQQAKNFPLTFGGGTKVDIK

>  <Ratio>
4.55

$$$$
>  <binder>
ACVR2B F08 (monoclonal scFv-phage) (scFv, V domains shown, also called F8) VH: VQLVESGGGLVQPGGSLRLSCAASGFTFSDHYMDWVRQAPGKGLEWVGRTRNKANSYTTEYAASVKGRFTISRDDSKNSLYLQMNSLRAEDTAVYYCTKGAWLDYWGQGTLVTVSS VL: IQMTQSPSAMSASVGDRVTITCRASQGISNYLAWFQQKPGKVPKRLIYGASSLQGGVPSRFSGSGSGTEFTLTITSLQPEDFATYFCLQHKSYPLTFGPGTKVEIK

>  <Ratio>
3.75

$$$$

Dear colleague, could you please provide Ratio for the binders listed below?
1. ACVR2B B08 (monoclonal scFv-phage) (scFv, V domains shown, also called B8) VH: VQLVQSGGGLVHPGQSLRLSCTGSGFPFGDYSMTWVRQAPGKGLEWVGLVRSKAYGGTTEYAASVKGRFIMSRDDSRSIAYLQMNSLRAEDTAVYYCARGHYGMDVWGQGTTVTVSS VL: DIQMTQSPSSVSASVGDRVTITCRASQGISNWLAWYQQKPGKAPKLLIYAASSLQSGVPSRFSGSGSGTDFTLTISSLQPEDFATYYCQQAKSYPYTFGQGTKVEIK
2. ACVR2B C07 (monoclonal scFv-phage) (scFv, V domains shown, also called C7) VH: QMQLVQSGGGLVKPGGSLRLSCAPSGFTFRDYHMSWIRQAPGKGLEWISNISNSGTNIYYADSVKGRFTISRDNAKNSLYLQMNSLRAEDTAVYYCARGHYGMDIWGQGTTITVSS VL: DIQMTQSPSSLSASVGDRVTITCRASQGIANYLAWYQQKPGKAPKLLIYAASTLQSGVPSRFSGSGSGTDFTLTISSLQPEDFATYYCQQVKSYPLSFGGGTKVEIK

OUT:
1: 2.28; 2: 6.75
